Biological target: furin (Homo sapiens, UniProt P09958)
Construct: recombinant soluble human furin
Sequence (P09958 108-715): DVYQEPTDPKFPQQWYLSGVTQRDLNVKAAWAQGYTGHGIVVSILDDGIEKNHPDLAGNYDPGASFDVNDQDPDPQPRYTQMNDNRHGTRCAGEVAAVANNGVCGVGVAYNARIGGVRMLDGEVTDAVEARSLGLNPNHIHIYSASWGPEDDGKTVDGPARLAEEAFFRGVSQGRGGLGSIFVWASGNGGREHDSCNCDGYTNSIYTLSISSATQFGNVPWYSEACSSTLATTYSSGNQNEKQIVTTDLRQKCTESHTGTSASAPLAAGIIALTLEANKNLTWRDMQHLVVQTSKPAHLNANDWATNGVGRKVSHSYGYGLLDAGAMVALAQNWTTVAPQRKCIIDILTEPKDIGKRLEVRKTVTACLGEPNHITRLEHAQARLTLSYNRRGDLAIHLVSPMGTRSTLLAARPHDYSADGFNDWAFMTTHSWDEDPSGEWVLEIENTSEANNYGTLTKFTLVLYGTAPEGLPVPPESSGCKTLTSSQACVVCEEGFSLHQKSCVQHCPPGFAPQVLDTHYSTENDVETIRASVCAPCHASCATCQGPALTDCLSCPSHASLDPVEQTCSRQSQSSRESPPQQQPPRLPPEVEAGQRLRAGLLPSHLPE
Experiment: fluorogenic protease assay with Pyr-RTKR-AMC substrate
Reported Endpoint: IC50

Query: What measured IC50 goes with O=c1c(O)c(-c2ccc(O)c(O)c2)oc2cc(O)cc(O)c12 ?
Response: ~116 µM
